System: RXF 393 renal
EXPERIMENTAL DETAILS: NCI-60 one-dose screen, 48 h
CONDITION NOTES: 10 µM unless noted
The panel holds about 83,000 compounds, 20% with a hit somewhere; the sample as a whole holds those more often. The source made the active and inactive calls. How the source made its calls: active means growth percent below 10; inactive means the rest.
Response enum: True for active, False for inactive

Check out these entries, answers already filled in.
COc1ccc(-c2cn[nH]c2-c2cc(OC)c3c(c2)OCO3)cc1 | True
COc1ccc(Cl)cc1NC(N)=S | False
CN1C(=O)[C@H]2c3c1cccc3[C@@]13NC(=O)O[C@H]1[C@H](CCC3(C)C)C2(C)C | False
COc1ccc2c(c1)C=CC(C#N)N2C(=O)c1ccccc1 (stereo not drawn) | False
CCC#CC[C@H]1C/C=C2/C(=O)C=C[C@@H]2C/C=C\CCCC(=O)O1 | True
NC(=O)NC(=O)/C=C/C(=O)OCCCl | False
Cc1ccc(-c2csc3nc(C)c(CCCl)c(=O)n23)cc1 | False
CCOC(=O)CC/C(C)=N\Nc1ccc([N+](=O)[O-])cc1 | False

Could you kindly confirm the outcome this assay logged for CCCCC(N)(C(=O)O)C1CCCC1 (stereo not drawn) ?
False

Assay result, entry Nc1cc2c(cc1N)-c1cc(N)c(N)cc1C2 — outcome?
False

Kindly provide the recorded test outcome for the following compound: CCSc1nnc(NC(=O)Cc2ccc(Cl)cc2)s1
False

For CCNCc1ccncc1 , which call appears in the assay record?
False

Test call, this compound: Clc1ccc(/C=C/c2nc(N3CCOCC3)c3nc(Cl)c(Cl)cc3n2)cc1
False

What classification did COc1cccc(/C=C/c2c(C(=O)O)cccc2[N+](=O)[O-])c1OC end up with in this test?
False
